Experimental target: Hexose transporter 1 (Plasmodium falciparum) (UniProt O97467)
Test summary: ST_JUDE_LEISH: Cytotoxicity at 2uM final concentration against transgenic Leishmania Mexicana promastigotes LmPfHT that are glucose transport deficient and complemented with the Plasmodium falciparum hexose transporter. Activity is measured by DNA content using SYBR green in vitro
Assay type: functional
Parameter measured: inhibition (%)
Answers are plain numbers, in %.

These recorded examples may help you get a feel for the data.
>  <Chemical structure>
COCCOc1ccc(Nc2nccc(-c3c(-c4cccc(NC(=O)c5c(F)cccc5F)c4)nn4ccccc34)n2)cc1Cl

>  <Parameter measured>
inhibition

>  <Quantitative readout>
11.1

$$$$
>  <Chemical structure>
CC(C)N(CC(=O)c1ccc(O)c(C(=O)O)c1)Cc1ccccc1

>  <Parameter measured>
inhibition

>  <Quantitative readout>
3.51

$$$$
>  <Chemical structure>
NC(=O)c1cc2nc(NC3CCC3)nc(Nc3cccc4[nH]ncc34)c2[nH]1

>  <Parameter measured>
inhibition

>  <Quantitative readout>
-0.16

$$$$
>  <Chemical structure>
O=C(N[C@@H](Cc1ccccc1)C(=O)NCCN1CCOCC1)c1ccc(O)c(-c2ccc(Cl)c(Cl)c2)c1

>  <Parameter measured>
inhibition

>  <Quantitative readout>
2.47

$$$$

Exercise: Hello, please tell me recorded inhibition for this one: `Cc1ccc2nc(C)n(C3CCN(C(=O)Cc4ccc(F)c(F)c4)CC3)c2c1`
Solution: 2
